Ref: paper PMC10813298

Experiment: Cell toxicity, MTT-based EZ4U assay, A549
Parameters: species or system human
Details: human, A549 cells (alveolar basal epithelial adenocarcinoma); A549, 300 µmol/L, 72 h
A collection of molecules and their measured viability at 72 h, 300 µmol/L
Please append the unit to your numeric answer.

# molecule, viability at 72 h, 300 µmol/L
rows = [
    ("O=C(/N=C(/NCc1ccccc1)Nc1ccc([N+](=O)[O-])cc1)c1ccccc1 [LQOF-G1]", "110%"),
]

Using the record for O=C(/N=C(/NCc1ccccc1)Nc1ccc(Br)cc1)c1ccccc1 [LQOF-G2] , report its viability at 72 h, 300 µmol/L. 111%

Using the record for O=C(/N=C(/NCc1ccc(Cl)cc1Cl)Nc1ccc(Br)cc1)c1ccccc1 [LQOF-G32] , report its viability at 72 h, 300 µmol/L. 106%

* * *

Assay: Cell toxicity, MTT-based EZ4U assay, HEK-293
Parameters: species or system human
Conditions: human, HEK-293 cells (embryonic kidney); HEK, 2.34 µmol/L, 72 h
A collection of molecules and their measured viability at 72 h, 2.34 µmol/L
Reply with just the number (in %).

# molecule, test value
data = [
    ("O=C(/N=C(/NCc1ccccc1)Nc1ccc([N+](=O)[O-])cc1)c1ccccc1 [LQOF-G1]", 99),
]

Using the record for O=C(/N=C(/NCc1ccc(Cl)cc1Cl)Nc1ccc(Br)cc1)c1ccccc1 [LQOF-G32] , report its viability at 72 h, 2.34 µmol/L. 93

Using the record for O=C(/N=C(/NCc1ccccc1)Nc1ccc(Br)cc1)c1ccccc1 [LQOF-G2] , report its viability at 72 h, 2.34 µmol/L. 104

* * *

A collection of molecules and their measured viability at 72 h, 75 µmol/L
Assay: Cell toxicity, MTT-based EZ4U assay, HEK-293
Design: species or system human
Details: human, HEK-293 cells (embryonic kidney); HEK, 75 µmol/L, 72 h
Reply with just the number (in %).

# smiles record, viability at 72 h, 75 µmol/L (%)
records = [
    ("O=C(/N=C(/NCc1ccccc1)Nc1ccc([N+](=O)[O-])cc1)c1ccccc1", 115),
]

Using the record for O=C(/N=C(/NCc1ccccc1)Nc1ccc(Br)cc1)c1ccccc1 , report its viability at 72 h, 75 µmol/L. 99

Using the record for O=C(/N=C(/NCc1ccc(Cl)cc1Cl)Nc1ccc(Br)cc1)c1ccccc1 , report its viability at 72 h, 75 µmol/L. 91

* * *

A collection of molecules and their measured viability at 72 h, 18.75 µmol/L
Assay: Cell toxicity, MTT-based EZ4U assay, CaCo-2
Conditions: human, CaCo-2 cells (colon carcinoma), CACO2, 18.75 µmol/L
Procedure: […] To assess cell viability after 72 h of exposure to the compounds, we employed a 3-(4,5-dimethylthiazol-2-yl)-2,5-diphenyltetrazolium bromide (MTT)-based vitality assay kit (EZ4U, Biomedica, Vienna, Austria). […] Subsequently, we measured the absorbance using a microplate reader at 450 nm, with 620 nm as a reference to reduce unspecific background values. […]
Reply with just the number (in %).

Look over these answered cases.
# smiles record, test value
records = [
    ("O=C(/N=C(/NCc1ccccc1)Nc1ccc([N+](=O)[O-])cc1)c1ccccc1", 109),
    ("O=C(/N=C(/NCc1ccccc1)Nc1ccc(Br)cc1)c1ccccc1", 103),
]

// next item, viability at 72 h, 18.75 µmol/L requested
Using the record for O=C(/N=C(/NCc1ccc(Cl)cc1Cl)Nc1ccc(Br)cc1)c1ccccc1 , report its viability at 72 h, 18.75 µmol/L. 116
